Attribution: patent US20040235900A1

Below, each of the compounds is paired with its reported Cmax value.
# experiment description: Pharmacokinetic study, single I.V. bolus dose in beagle dog
# Type: in vivo
# applied conditions: iv, single I.V. bolus dose 15 mg/kg (table title), Compound No. 4 and linezolid in 5% Tween, other compounds in cyclodextrin, serum

compound	Cmax [ng/mL]
CC(=O)NC[C@H]1CN(c2ccc(N3CCC(=NO)CC3)c(F)c2)C(=O)O1 [U.S. Pat. No. 5,668,286 (No. 11)]	4150
CC(=O)NC[C@H]1CN(c2ccc(N3CCC4(CC3)OCCO4)c(F)c2)C(=O)O1 [U.S. Pat. No. 5,668,286 (No. 30)]	7640
CC(=O)NC[C@H]1CN(c2ccc(N3CCC(O)CC3)c(F)c2)C(=O)O1 [U.S. Pat. No. 5,668,286 (No. 3)]	6190
CC(=O)NC[C@H]1CN(c2ccc(N3CCC(CC#N)CC3)c(F)c2)C(=O)O1 [Compound 4]	8280
CC(=O)NC[C@H]1CN(c2ccc(N3CCOCC3)c(F)c2)C(=O)O1 [Linezolid]	7160

###

# System: Streptococcus pneumoniae ATCC 49619
# experiment description: In-vitro MIC test (agar dilution, 5% sheep blood), S. pneumoniae
# Type: cell-based
# applied conditions: ATCC49619, Mueller Hinton agar containing 5% sheep blood, read-out: Minimum Inhibitory Concentrations (MIC) S. pneumoniae
# Text: The test methods used for verifying the antimicrobial action of compound within the scope of this invention are essentially the same as those described in PCT WO 95/25106, U.S. Pat. No. 5,668,286 and EP 0 750, 618 B1, with the difference that the strains of the organisms used for the MIC determinations in these patents and applications are Staphylococcus aureus ATCC 25923, Staphylococcus epidermidis ATCC 12828, Streptococcus pyogenes ATCC 19615. […]
Items are presented alongside their recorded MIC.
measured quantity: MIC (µg/mL)

compound	subject of test	assay value
N#CCC1CCN(c2ccc(N3C[C@H](CNC(=O)C(F)(F)F)OC3=O)cc2F)CC1	Streptococcus pneumoniae ATCC 49619	2
CC(=O)NC[C@H]1CN(c2ccc(N3CCC(CC#N)CC3)cc2)C(=O)O1	Streptococcus pneumoniae ATCC 49619	2
CCC(C#N)C1CCN(c2ccc(N3C[C@H](CNC(C)=O)OC3=O)cc2F)CC1 (stereo partly shown)	Streptococcus pneumoniae ATCC 49619	2
CC(=O)NC[C@H]1CN(c2ccc(N3CCC(C(C#N)C#N)CC3)c(F)c2)C(=O)O1	Streptococcus pneumoniae ATCC 49619	1
CC(=O)NC[C@H]1CN(c2ccc(N3CCOCC3)c(F)c2)C(=O)O1	Streptococcus pneumoniae ATCC 49619	0.5
CC(=O)NC[C@H]1CN(c2ccc(N3CCC(C(C#N)CO)CC3)c(F)c2)C(=O)O1 (stereo partly shown)	Streptococcus pneumoniae ATCC 49619	2
CCCC(C#N)C1CCN(c2ccc(N3C[C@H](CNC(C)=O)OC3=O)cc2F)CC1 (stereo partly shown)	Streptococcus pneumoniae ATCC 49619	4
CC(=O)NC[C@H]1CN(c2ccc(N3CCC(CC#N)C(C)C3)c(F)c2)C(=O)O1 (stereo partly shown)	Streptococcus pneumoniae ATCC 49619	2
CC(=O)NC[C@H]1CN(c2ccc(N3CCC(CC#N)CC3)c(F)c2)C(=O)O1	Streptococcus pneumoniae ATCC 49619	1
CC(=O)NC[C@H]1CN(c2ccc(N3CCC(C(C)C#N)CC3)c(F)c2)C(=O)O1 (stereo partly shown)	Streptococcus pneumoniae ATCC 49619	2

###

# experiment description: Pharmacokinetic study, single oral dose in beagle dog
# Format: in vivo
# applied conditions: single oral dose 5 mg/kg p.o., Compound No. 4 and linezolid in 5% Tween, other compounds in cyclodextrin, serum
Reported values of Cmax for individual entries

compound string	Cmax / ng/mL
CC(=O)NC[C@H]1CN(c2ccc(N3CCC4(CC3)OCCO4)c(F)c2)C(=O)O1	5310
CC(=O)NC[C@H]1CN(c2ccc(N3CCOCC3)c(F)c2)C(=O)O1	5700
CC(=O)NC[C@H]1CN(c2ccc(N3CCC(O)CC3)c(F)c2)C(=O)O1	1520
CC(=O)NC[C@H]1CN(c2ccc(N3CCC(CC#N)CC3)c(F)c2)C(=O)O1	5660

###

# experiment description: Pharmacokinetic study, single oral dose in beagle dog
# Format: in vivo
# applied conditions: serum, single oral dose 5 mg/kg p.o., Compound No. 4 and linezolid in 5% Tween, other compounds in cyclodextrin, read-out: AUC (0-24 hr)
measured quantity: AUC(0-t)

molecule	measured quantity	assay value
CC(=O)NC[C@H]1CN(c2ccc(N3CCOCC3)c(F)c2)C(=O)O1 [Linezolid]	AUC(0-t)	22800 ng·h/mL
CC(=O)NC[C@H]1CN(c2ccc(N3CCC(CC#N)CC3)c(F)c2)C(=O)O1 [Compound 4]	AUC(0-t)	71600 ng·h/mL
CC(=O)NC[C@H]1CN(c2ccc(N3CCC4(CC3)OCCO4)c(F)c2)C(=O)O1 [U.S. Pat. No. 5,668,286 (No. 30)]	AUC(0-t)	47200 ng·h/mL
CC(=O)NC[C@H]1CN(c2ccc(N3CCC(O)CC3)c(F)c2)C(=O)O1 [U.S. Pat. No. 5,668,286 (No. 3)]	AUC(0-t)	2740 ng·h/mL

###

# experiment description: Pharmacokinetic study, single I.V. bolus dose in beagle dog
# Format: in vivo
# applied conditions: serum, iv, single I.V. bolus dose 15 mg/kg (table title), Compound No. 4 and linezolid in 5% Tween, other compounds in cyclodextrin, read-out: AUC (0-24 hr)
Lab note: anything with AUC(0-t) at or over 50000 ng·h/mL counts as yes; the rest go in no.

compound	assigned category
CC(=O)NC[C@H]1CN(c2ccc(N3CCC4(CC3)OCCO4)c(F)c2)C(=O)O1 [U.S. Pat. No. 5,668,286 (No. 30)]	no
CC(=O)NC[C@H]1CN(c2ccc(N3CCC(O)CC3)c(F)c2)C(=O)O1 [U.S. Pat. No. 5,668,286 (No. 3)]	no
CC(=O)NC[C@H]1CN(c2ccc(N3CCOCC3)c(F)c2)C(=O)O1 [Linezolid]	no
CC(=O)NC[C@H]1CN(c2ccc(N3CCC(=NO)CC3)c(F)c2)C(=O)O1 [U.S. Pat. No. 5,668,286 (No. 11)]	no
CC(=O)NC[C@H]1CN(c2ccc(N3CCC(CC#N)CC3)c(F)c2)C(=O)O1 [Compound 4]	yes

###

Form field: half-life (one value per entry).
# experiment description: Pharmacokinetic study, single I.V. bolus dose in beagle dog
# Format: in vivo
# applied conditions: serum, iv, single I.V. bolus dose 15 mg/kg (table title), Compound No. 4 and linezolid in 5% Tween, other compounds in cyclodextrin
measured quantity: half-life (h)

compound string	unit string	assay value
CC(=O)NC[C@H]1CN(c2ccc(N3CCC(=NO)CC3)c(F)c2)C(=O)O1	h	0.16
CC(=O)NC[C@H]1CN(c2ccc(N3CCC(CC#N)CC3)c(F)c2)C(=O)O1	h	12.9
CC(=O)NC[C@H]1CN(c2ccc(N3CCC(O)CC3)c(F)c2)C(=O)O1	h	0.98
CC(=O)NC[C@H]1CN(c2ccc(N3CCC4(CC3)OCCO4)c(F)c2)C(=O)O1	h	6.71
CC(=O)NC[C@H]1CN(c2ccc(N3CCOCC3)c(F)c2)C(=O)O1	h	2.41

###

# experiment description: Pharmacokinetic study, single oral dose in beagle dog
# Assay type: in vivo
# applied conditions: serum, single oral dose 5 mg/kg p.o., Compound No. 4 and linezolid in 5% Tween, other compounds in cyclodextrin

compound string	unit string	half-life
CC(=O)NC[C@H]1CN(c2ccc(N3CCC(O)CC3)c(F)c2)C(=O)O1	h	1.37
CC(=O)NC[C@H]1CN(c2ccc(N3CCC4(CC3)OCCO4)c(F)c2)C(=O)O1	h	6.68
CC(=O)NC[C@H]1CN(c2ccc(N3CCOCC3)c(F)c2)C(=O)O1	h	2.42
CC(=O)NC[C@H]1CN(c2ccc(N3CCC(CC#N)CC3)c(F)c2)C(=O)O1	h	10.8

###

Listed here: items and their measured melting point.
measured quantity: melting point

compound	measured quantity	assay value
CC(=O)NC[C@H]1CN(c2ccc(N3CCC(C(C#N)C(=O)O)CC3)c(F)c2)C(=O)O1 (stereo partly shown)	melting point	198 to 200 °C
CCCC(C#N)C1CCN(c2ccc(N3C[C@H](CNC(C)=O)OC3=O)cc2F)CC1 (stereo partly shown)	melting point	180 to 182 °C
CC(=O)NC[C@H]1CN(c2ccc(N3CCC(C(C#N)CO)CC3)c(F)c2)C(=O)O1 (stereo partly shown)	melting point	182 to 184 °C
CC(=O)NC[C@H]1CN(c2ccc(N3CCC(C(C)C#N)CC3)c(F)c2)C(=O)O1 (stereo partly shown)	melting point	147 to 148 °C
CC(=O)NC[C@H]1CN(c2ccc(N3CCC(CC#N)C(C)C3)c(F)c2)C(=O)O1 (stereo partly shown)	melting point	148 to 149 °C
CCC(C#N)C1CCN(c2ccc(N3C[C@H](CNC(C)=O)OC3=O)cc2F)CC1 (stereo partly shown)	melting point	185 to 186 °C
CC(=O)NC[C@H]1CN(c2ccc(N3CCC(C(C#N)C#N)CC3)c(F)c2)C(=O)O1	melting point	223 to 225 °C
